Data provenance is paper PMC9610943.

System: E. coli B2
Format: cell-based
Settings: B2
Where no end group is shown, it is not given here.
For each of the sequences below, state its MIC in presence of Na^+.
One number for each entry, in µg/mL.

The examples below pair each entry with its known result.
{"columns": ["CHAIN", "MIC in presence of Na^+ [µg/mL]"],
 "data": [
  ["GWKSFFKKWKHVWK [GK-2]", 2],
  ["GWKSFFKKFKHVWK [GK-3]", 2],
  ["GWKKFFKKWKHVWK [GK-4]", 2]
]}

Moving on to another sequence below.
*Q* Can you share its MIC in presence of Na^+? I mean this sequence: GWGSFFKKAAHVGKHVGKAALTHYL [Pleu, Pleurocidin]
*A* 1
